Biological target: T1, human TIM-3 protein with hFc tag (hTIM-3-hFc protein) (human, UniProt Q8TDQ0 22-200)
T1 construct: also called immunogen 1; human TIM-3 extracellular domain protein; not shown: human IgG Fc fragment (hFc) of the pCpC vector
T1 sequence: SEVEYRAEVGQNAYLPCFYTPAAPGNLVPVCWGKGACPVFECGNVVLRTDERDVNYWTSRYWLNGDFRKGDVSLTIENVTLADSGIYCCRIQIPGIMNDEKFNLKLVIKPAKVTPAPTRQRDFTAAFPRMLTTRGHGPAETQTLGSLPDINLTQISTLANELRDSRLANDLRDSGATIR
Assay: ELISA, coated hTIM-3-hFc; antibody 66.667 nM
Recorded measurements of OD450, one per entry

binder	OD450
134H3G6 (TIM-3 antibody purified from hybridoma, chimeric antibody of Example 2) (antibody, V domains shown, From hybridoma of Harbour H2L2 transgenic mice: human variable regions, rat constant regions) VH: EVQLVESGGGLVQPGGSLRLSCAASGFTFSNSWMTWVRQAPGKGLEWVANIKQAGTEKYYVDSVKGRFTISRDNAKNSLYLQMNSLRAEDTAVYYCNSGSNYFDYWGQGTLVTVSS VL: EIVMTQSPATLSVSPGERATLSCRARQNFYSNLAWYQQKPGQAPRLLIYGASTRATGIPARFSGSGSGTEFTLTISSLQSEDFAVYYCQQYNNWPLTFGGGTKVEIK	3.15
18D2H2 (TIM-3 antibody purified from hybridoma, chimeric antibody of Example 2) (antibody, V domains shown, From hybridoma of Harbour H2L2 transgenic mice: human variable regions, rat constant regions) VH: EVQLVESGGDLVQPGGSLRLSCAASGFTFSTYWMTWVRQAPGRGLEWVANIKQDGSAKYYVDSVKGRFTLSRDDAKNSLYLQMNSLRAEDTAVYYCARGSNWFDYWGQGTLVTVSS VL: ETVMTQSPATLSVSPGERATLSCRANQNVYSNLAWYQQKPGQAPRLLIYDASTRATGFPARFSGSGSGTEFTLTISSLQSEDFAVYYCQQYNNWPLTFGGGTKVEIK	2.93
39E5H1 (TIM-3 antibody purified from hybridoma, chimeric antibody of Example 2) (antibody, V domains shown, From hybridoma of Harbour H2L2 transgenic mice: human variable regions, rat constant regions) VH: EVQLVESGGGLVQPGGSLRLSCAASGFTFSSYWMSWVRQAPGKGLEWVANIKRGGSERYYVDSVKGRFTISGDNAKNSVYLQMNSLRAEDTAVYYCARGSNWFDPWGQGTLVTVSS VL: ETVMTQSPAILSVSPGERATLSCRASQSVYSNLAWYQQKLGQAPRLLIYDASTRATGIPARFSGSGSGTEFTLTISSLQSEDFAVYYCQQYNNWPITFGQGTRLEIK	3.39
7A4F10 (TIM-3 antibody purified from hybridoma, chimeric antibody of Example 2) (antibody, V domains shown, From hybridoma of Harbour H2L2 transgenic mice: human variable regions, rat constant regions) VH: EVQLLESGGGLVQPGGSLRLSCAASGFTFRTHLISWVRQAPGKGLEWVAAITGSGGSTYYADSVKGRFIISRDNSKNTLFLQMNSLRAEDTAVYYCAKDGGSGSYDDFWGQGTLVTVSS VL: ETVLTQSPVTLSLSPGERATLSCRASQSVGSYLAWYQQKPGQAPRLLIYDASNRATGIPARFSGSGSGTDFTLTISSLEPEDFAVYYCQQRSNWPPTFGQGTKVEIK	3.08
57F4E5 (TIM-3 antibody purified from hybridoma, chimeric antibody of Example 2) (antibody, V domains shown, From hybridoma of Harbour H2L2 transgenic mice: human variable regions, rat constant regions) VH: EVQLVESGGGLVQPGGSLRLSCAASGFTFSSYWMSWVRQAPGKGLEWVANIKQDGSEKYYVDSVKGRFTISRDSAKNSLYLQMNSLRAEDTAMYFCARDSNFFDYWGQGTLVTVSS VL: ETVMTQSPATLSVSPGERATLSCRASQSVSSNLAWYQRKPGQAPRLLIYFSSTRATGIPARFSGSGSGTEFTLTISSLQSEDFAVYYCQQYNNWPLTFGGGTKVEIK	3.26
34B6D8 (TIM-3 antibody purified from hybridoma, chimeric antibody of Example 2) (antibody, V domains shown, From hybridoma of Harbour H2L2 transgenic mice: human variable regions, rat constant regions) VH: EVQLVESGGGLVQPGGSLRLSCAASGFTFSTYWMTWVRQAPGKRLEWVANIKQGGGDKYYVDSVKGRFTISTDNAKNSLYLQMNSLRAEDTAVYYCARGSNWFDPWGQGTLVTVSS VL: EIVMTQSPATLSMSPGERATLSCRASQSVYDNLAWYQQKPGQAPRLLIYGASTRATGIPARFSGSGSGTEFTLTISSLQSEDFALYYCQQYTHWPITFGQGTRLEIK	3.42
